Source of measurements: a melting point compilation (Tetko et al.; mined from patent text by program, amines drawn as free bases though some values may be those of a salt)

Quantity name: melting point

O=C1OCCN1CCN1C(=O)C2(COc3cc4c(cc32)CCO4)c2ccccc21 (centres undefined)    185 to 186 °C
CCOC(=NC(=O)c1cc(C(F)(F)F)cc(C(F)(F)F)c1)N1Cc2ccccc2-c2ccccc2C1    129 to 130 °C
CCCC(C)(c1ccc(Oc2ccc([N+](=O)[O-])cc2)cc1)c1ccc(Oc2ccc([N+](=O)[O-])cc2)cc1    151 to 152 °C
COc1c(C)c(C(=O)c2ccc3[nH]c(=O)n(O)c(=O)c3c2)n2ccccc12    300 °C
O=C1NC(=O)C(Nc2ccc(Br)c3ccccc23)S1 (centres undefined)    199 to 200 °C
COC(=O)C(Cc1ccc(OCCn2c(=O)oc3cc(C(O)c4ccccc4)ccc32)cc1)C(=O)OC (centres undefined)    84 to 87 °C
CC(=O)OC1CC2(C)C(=O)CCC2C2C(CCCCCCCCCCl)CC3=CC(=O)CCC3C12 (centres undefined)    113 to 115 °C
CC(C)(C)c1ccc(S(=O)(=O)Nc2cc(OCCO)ncn2)cc1    169 to 170 °C

What does the data say about its melting point? Entry: CN1CC(CN2CC(=O)NC2=O)CC2c3cccc4[nH]cc(c34)CC21 (centres undefined) 199 to 201 °C

What does the data say about its melting point? Entry: CCOP(=O)(OCC)N1CC2(C(=O)OC)COc3cc(C(F)(F)F)ccc3C2=N1 (centres undefined) 85 to 86 °C

What does the data say about its melting point? Entry: "Cc1ccccc1COC(=O)c1ccc(C(=O)N2Cc3ccccc3Cc3ccccc32)cc1" 140 to 142 °C

What does the data say about its melting point? Entry: "COc1ccc(OC)c2[nH]ccc12" 193 to 195 °C

What does the data say about its melting point? Entry: "c1ccc(-c2ccc3oc(COc4ccc(CCCn5ccnc5)cc4)nc3c2)cc1" 123 to 124 °C

What does the data say about its melting point? Entry: "Fc1ccc(Cn2c(SC3CCNCC3)nc3cncnc32)cc1" 114 °C

What does the data say about its melting point? Entry: "CCN(CC)CCCCC(=O)c1ccc2c(c1)Cc1cc(C(=O)CCCCN(CC)CC)ccc1-2" 78 to 80 °C
